experimental.system: human TYK2 (Homo sapiens, UniProt P29597)
Construct: catalytic domain (amino acids 871-1187; catalog number 08-147)
Sequence (P29597 871-1187): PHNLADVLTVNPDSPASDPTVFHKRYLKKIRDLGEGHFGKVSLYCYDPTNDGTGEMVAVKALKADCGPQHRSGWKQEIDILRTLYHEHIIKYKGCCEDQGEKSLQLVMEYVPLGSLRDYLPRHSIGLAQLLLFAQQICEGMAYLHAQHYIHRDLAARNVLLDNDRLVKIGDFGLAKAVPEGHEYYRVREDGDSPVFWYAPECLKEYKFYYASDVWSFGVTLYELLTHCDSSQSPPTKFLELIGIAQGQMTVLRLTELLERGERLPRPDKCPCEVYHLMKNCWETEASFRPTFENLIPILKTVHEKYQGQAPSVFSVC
protocol.description: TYK2 inhibition assay
test.context: recombinant human TYK2 catalytic domain, polyGT substrate
quantity.name: IC50

INSERT INTO results (compound, experimental_system, result) VALUES
  ('CCc1cc(C2=CCN(C(=O)C(O)C(F)(F)F)CC2)ccc1N(C)c1cc2c(cn1)ncn2C (stereo not shown) [Compound 230]', 'human TYK2 (Homo sapiens, UniProt P29597)', '0.01 to 100 nM'),
  ('CCc1ccccc1N(CC(F)F)c1cc2c(cn1)ncn2C [Compound 284]', 'human TYK2 (Homo sapiens, UniProt P29597)', '0.01 to 100 nM'),
  ('CCc1cc(CNS(=O)(=O)N2CCC(F)(F)C2)ccc1N(C)c1cc2c(cn1)ncn2C [Compound 425]', 'human TYK2 (Homo sapiens, UniProt P29597)', '101 to 500 nM');

Next, consider the following compound.
Give the measured IC50 of CCc1cc(C2=CCN(C(=O)C3(C#N)CC3)CC2)ccc1N(C)c1cc2c(cn1)ncn2C [Compound 198] . 0.01 to 100 nM

All figures here come from patent US20130217664A1.
